- testSystem: Phosphoglycerate kinase, glycosomal (Trypanosoma brucei brucei)
- assayExplanation: qHTS Assay to Find Inhibitors of Phosphoglycerate Kinase; also: nearly all actives have a fitted effect of over 60% in size
- details: PGK/GAPDH coupled, Kinase-Glo luminescence, 60 min; series mostly up to 57.5 µM
Hit rate of the full screen: of about 380,000 compounds, about 170 (0.045%) were called active. For the sample, actives were picked, then their nearest neighbours and some compounds at random.
measuredProperty: outcome

molecule	obsValue
CC(C)Oc1ccc(CNC(=O)C2CCN(c3nc4ccccc4n(C)c3=O)CC2)cc1	inactive
COc1ccc(C2C(=O)N(C3CCCCCC3)CC(=O)N2CCc2ccc(Cl)cc2)cc1OC (stereo not given)	inactive
CC(C)(C)c1ccc(OCC(=O)N2CCC(c3nc4ccccc4s3)CC2)cc1	inactive
CCc1cccc(-n2nnc(-c3nsc(NC(=O)c4ccc(C)cc4)n3)c2C)c1	inactive
CN1c2ccc(Cl)cc2-c2nc(SCC(=O)Nc3cc(F)ccc3F)ncc2S1(=O)=O	inactive
CC(C)(C)OC(=O)N1CCC(c2c(C(=O)Nc3ccc4c(c3)OCO4)cnn2-c2ccccc2)CC1	inactive
CCOc1ccccc1NC(=O)Cn1c(=O)n(Cc2ccco2)c(=O)c2sc3ccccc3c21	inactive
COc1ccc(-c2c(C)nn3c(N4CCC(C(=O)NCCC(C)C)CC4)cc(C)nc23)cc1OC	inactive
COc1ccc(-n2c(SCC(N)=O)nc3c(oc4ccccc43)c2=O)cc1	inactive
NC1=NC(c2cc(F)cc(F)c2)n2c(nc3ccccc32)N1 (stereo not given)	inactive
COc1cccc(OCCn2c(-c3ccc(Br)cc3)nc3ccccc3c2=O)c1	inactive
CCCSc1nc2sc3c(c2c(=O)n1-c1cccc(Br)c1)CC(C)(C)OC3	inactive
CCOc1cccc(NC(=O)CSc2ncc(-c3ccc(Cl)cc3)[nH]2)c1	inactive
CC(C)Cn1c(=O)c2ccccc2n2c(CCC(=O)N3CCN(c4cccc(Cl)c4)CC3)nnc12	inactive
CCCCOc1ccc(CNC(=O)c2ccc3c(c2)N(C)C(=O)C2CCCCN32)cc1 (stereo not given)	inactive
CCOC(=O)c1oc2ccc(S(=O)(=O)n3nc(-c4ccccc4OC)cc3N)cc2c1C	inactive
O=C(Nc1nnc(C2CC(=O)N(c3ccc(Cl)cc3)C2)s1)c1ccco1 (stereo not given)	inactive
CCOC(=O)C(Cc1ccccc1)NC(=O)CCc1c(C)nc2c(c(C)nn2-c2ccc(C)c(C)c2)c1C (stereo not given)	inactive
COc1ccccc1-c1noc(CSc2nnc(-c3ccccc3)n2-c2ccc(C)c(C)c2)n1	inactive
CCOc1ccc(-n2nc3ccc(NC(=O)c4ccc(OC)c(Cl)c4)cc3n2)cc1	inactive

* * *

- testSystem: Phosphoglycerate kinase, glycosomal (Trypanosoma brucei brucei)
- assayExplanation: qHTS Assay to Find Inhibitors of Phosphoglycerate Kinase; also: nearly all actives have a fitted effect of over 60% in size
- details: PGK/GAPDH coupled, Kinase-Glo luminescence, 60 min; series mostly up to 57.5 µM
About 170 (0.045%) of roughly 380,000 compounds were called active. Only a selection was taken, and actives are over-represented in it overall.

molecule	outcome
COc1ccc(CNC(=O)COCc2cc(-c3cccs3)on2)cc1OC	inactive
CCc1ccc(NC(=O)CN2CCSc3ccc(S(=O)(=O)N4CCCC4)cc32)cc1	inactive
COc1cc(C(CC(=O)NCCC(C)C)N2Cc3ccccc3C2=O)cc(OC)c1OC (stereo not given)	inactive
O=C(NCc1ccccc1Cl)C1=Cc2cc(Br)ccc2OC1	inactive
CCOc1ccccc1CNCc1c(C(=O)O)c(C)n(Cc2ccc(C)cc2)c1C	inactive
